Exercise: for every item that follows, state its recorded pIC50.
Molecular target: EZH2 (Homo sapiens, UniProt Q15910)
Sequence (Q15910 whole entry): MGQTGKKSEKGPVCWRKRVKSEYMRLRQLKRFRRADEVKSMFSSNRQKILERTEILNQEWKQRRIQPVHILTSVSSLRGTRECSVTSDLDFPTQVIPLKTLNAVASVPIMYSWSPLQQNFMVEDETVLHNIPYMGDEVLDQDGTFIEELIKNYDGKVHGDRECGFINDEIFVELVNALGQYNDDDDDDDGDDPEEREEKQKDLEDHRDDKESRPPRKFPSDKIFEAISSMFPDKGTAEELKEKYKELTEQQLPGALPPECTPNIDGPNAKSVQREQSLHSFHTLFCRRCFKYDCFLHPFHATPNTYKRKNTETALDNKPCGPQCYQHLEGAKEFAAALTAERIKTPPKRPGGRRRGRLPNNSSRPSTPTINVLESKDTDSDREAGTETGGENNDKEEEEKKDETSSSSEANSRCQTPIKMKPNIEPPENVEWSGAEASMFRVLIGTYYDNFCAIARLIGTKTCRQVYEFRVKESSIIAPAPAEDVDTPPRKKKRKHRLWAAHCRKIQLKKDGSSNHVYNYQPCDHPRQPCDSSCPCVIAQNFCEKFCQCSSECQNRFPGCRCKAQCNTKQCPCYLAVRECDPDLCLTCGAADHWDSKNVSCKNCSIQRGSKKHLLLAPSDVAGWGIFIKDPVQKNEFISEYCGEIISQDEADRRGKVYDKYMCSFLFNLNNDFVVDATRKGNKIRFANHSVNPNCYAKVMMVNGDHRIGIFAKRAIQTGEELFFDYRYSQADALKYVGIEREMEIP
Sequence (O75530 whole entry partner): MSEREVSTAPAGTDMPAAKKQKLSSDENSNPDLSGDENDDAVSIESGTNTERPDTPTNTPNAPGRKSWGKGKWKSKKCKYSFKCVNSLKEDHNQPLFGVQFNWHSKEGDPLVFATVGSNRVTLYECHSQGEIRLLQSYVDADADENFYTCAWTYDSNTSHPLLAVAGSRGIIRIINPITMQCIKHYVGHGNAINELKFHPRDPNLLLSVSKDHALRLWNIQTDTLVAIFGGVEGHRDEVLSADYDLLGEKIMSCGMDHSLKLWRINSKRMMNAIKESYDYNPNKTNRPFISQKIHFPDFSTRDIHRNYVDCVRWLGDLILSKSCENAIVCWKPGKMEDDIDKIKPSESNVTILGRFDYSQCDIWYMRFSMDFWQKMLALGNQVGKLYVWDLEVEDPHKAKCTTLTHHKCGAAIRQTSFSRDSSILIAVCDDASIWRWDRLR
Sequence (Q15022 whole entry partner): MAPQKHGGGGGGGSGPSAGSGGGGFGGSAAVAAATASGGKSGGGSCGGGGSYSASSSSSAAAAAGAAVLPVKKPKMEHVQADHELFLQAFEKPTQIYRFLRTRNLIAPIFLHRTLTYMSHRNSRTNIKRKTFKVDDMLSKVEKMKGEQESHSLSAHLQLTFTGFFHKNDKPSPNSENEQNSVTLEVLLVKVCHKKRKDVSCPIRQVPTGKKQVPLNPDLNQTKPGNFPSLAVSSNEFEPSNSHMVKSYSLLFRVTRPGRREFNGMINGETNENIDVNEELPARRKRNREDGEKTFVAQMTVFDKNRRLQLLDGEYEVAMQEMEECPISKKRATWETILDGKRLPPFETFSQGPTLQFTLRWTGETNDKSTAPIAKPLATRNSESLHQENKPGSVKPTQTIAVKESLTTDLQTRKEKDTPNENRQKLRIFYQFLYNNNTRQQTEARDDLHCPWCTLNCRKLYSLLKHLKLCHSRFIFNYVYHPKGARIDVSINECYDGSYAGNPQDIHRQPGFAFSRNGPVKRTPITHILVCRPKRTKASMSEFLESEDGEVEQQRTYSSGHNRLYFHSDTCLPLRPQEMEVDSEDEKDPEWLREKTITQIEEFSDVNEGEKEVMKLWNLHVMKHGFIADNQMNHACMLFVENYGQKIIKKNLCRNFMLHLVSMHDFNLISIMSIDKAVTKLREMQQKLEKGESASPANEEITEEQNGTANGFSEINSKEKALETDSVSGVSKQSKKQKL
Assay: EZH2 assay: rPRC2 with biotinylated oligonucleosome substrates and 3H SAM, FlashPlate scintillation counting, IC50
Type: biochemical
Settings: rPRC2, biotinylated oligonucleosome substrates, 3H SAM; read-out: EZH2 IC50
pIC50: −log10 of the molar value.

CC1(C)CC(NC(=O)c2ccc(C(=O)Nc3ccccc3)cc2)CC(C)(C)N1 : < 4.10
CC1(C)CC(NC(=O)c2ccc(Oc3cccc(-c4cncc(F)c4)c3C#N)c(Cl)c2)CC(C)(C)N1 : > 5.30
COCc1ccccc1Oc1ccc(C(=O)NC2CC(C)(C)NC(C)(C)C2)cc1 : 4.10 to 4.70

Could you now consider this next molecule?
State, for EZH2 (Homo sapiens, UniProt Q15910), measured pIC50 of the molecule listed here: "CC1(C)CC(NC(=O)c2ccc(Oc3ccccc3)nc2)CC(C)(C)N1"
4.10 to 4.70

* * *

Target: EZH2 (Homo sapiens)
Test: EZH2 assay: rPRC2 with biotinylated oligonucleosome substrates and 3H SAM, FlashPlate scintillation counting, IC50
Format: biochemical
Conditions: rPRC2, biotinylated oligonucleosome substrates, 3H SAM; read-out: EZH2 IC50
Assay readout: IC50

Solved cases below.
CN(C)CCCNC(=O)c1ccc(Oc2ccccc2)cc1 : > 80 µM
CC1(C)CC(NC(=O)c2ccc(COc3ccc(C#N)cc3)cc2)CC(C)(C)N1 : 20 to 80 µM
CC1(C)CC(NC(=O)c2ccc(Oc3cccc(CC#N)c3)c(Cl)c2)CC(C)(C)N1 : < 5 µM
CC1(C)CC(NC(=O)c2ccc(Oc3cccc(-c4ccnc(N)c4)c3C#N)c(Cl)c2)CC(C)(C)N1 : < 5 µM
CNC(C)c1cccc(Oc2ccc(C(=O)NC3CC(C)(C)NC(C)(C)C3)cc2Cl)c1 (centres unmarked) : 5 to 20 µM

Look at each compound and report its IC50.
1. CC1(C)CC(NC(=O)c2ccc(Oc3cccc4c3CCCC4)cc2)CC(C)(C)N1
2. CC1(C)CC(NC(=O)c2ccc(Oc3ccccc3Cl)cc2)CC(C)(C)N1
3. COc1cccc(Oc2ccc(C(=O)NC3CC(C)(C)NC(C)(C)C3)cc2Cl)c1C#N

["5 to 20 µM", "20 to 80 µM", "< 5 µM"]

* * *

Exercise: for every item that follows, state its recorded pIC50.
Target: EZH2 (Homo sapiens)
Experiment: EZH2 assay: rPRC2 with biotinylated oligonucleosome substrates and 3H SAM, FlashPlate scintillation counting, IC50
Type: biochemical
Conditions: rPRC2, biotinylated oligonucleosome substrates, 3H SAM; read-out: EZH2 IC50
pIC50: −log10 of the molar value.

Solved cases below.
CC1(C)CC(NC(=O)c2ccc(Oc3ccc(I)cn3)cc2)CC(C)(C)N1 [Compound I-68] : < 4.10
CC1(C)CC(NC(=O)c2ccc(Oc3cccc(N4CCOCC4)c3)c(Cl)c2)CC(C)(C)N1 [Compound I-590] : 4.10 to 4.70
COc1cncc(-c2cccc(OCc3ccc(C(=O)NC4CC(C)(C)NC(C)(C)C4)cc3)c2)c1 [Compound I-37] : 4.10 to 4.70

Could you now consider this next compound?
Report pIC50, nothing else, for this compound: CC1(C)CC(NC(=O)c2ccc(OC[C@@H]3CCCN3)c(Cl)c2)CC(C)(C)N1 [Compound I-410]
< 4.10
